# SYSTEM NAME: T1, human GPC3-his tag protein (human, UniProt P51654 25-559, limits assumed)
# T1 construct: recombinant soluble antigen used as analyte in all Biacore runs; also called recombinant GPC3 protein; rhGPC3-His; not shown: His tag
# PROTOCOL: SPR Biacore 8K, mAb captured on CM5, single dose GPC3-his
pKd: −log10 of the molar value.

BINDER | pKd
171F9C5 mouse monoclonal antibody (antibody, V domains shown, mouse hybridoma antibody) VH: QVQLQQSGAELVRPGASVTLSCKASGYTFTDYEIHWVKQTPVHGLEWIGAIDPETDNTAYSQKFKGKAILTADKSSSTAYMELRSLTSEDSAVYYCTRYYSYAYWGQGTLVTVSA VL: DVVMTQTPLSLPVSLGDQASISCRSSQSPVHRNGNTYLHWYLQKPGQSPKLLIFKVSNRFSGVPDRFSGSGSGTDFTLKISRVAAEDLGVYFCSQTTHVPYTFGGGTKLEIK | 8.91
172B4E9 mouse monoclonal antibody (antibody, V domains shown, mouse hybridoma antibody) VH: QVQLQQSGAELVRPGASVTLSCKASGYTFTDYEIHWVKQTPVHGLEWIGAIDPATGDTAYTQKFKGKAILTADTSSNTVYMELRGLTSEDSAVHFCTRFYSYAYWGQGTLVTVSA VL: DVVMTQTPLSLPVSLGDQASISCRSSQSLVHTNGHTYLQWYLQKSGQSPRLLIFKVSNRFSGVPDRFSGSGSGTDFKLKISRVEAEDLGVYFCSQSTHVPYTFGGGTKLEIK | 9.35
163E7D12 mouse monoclonal antibody (antibody, V domains shown, mouse hybridoma antibody) VH: QVQLQQSGAELVRPGASVTLSCKASGYTFTDYEMHWVKQTPVHGLEWIGAIGPETGSTAYNQRFKGKAIVTADKSSSTAYMELRSLTSEDSAVYYCTRYYSFAYWGQGTLVTVSA VL: DVVMTQTPLSLPVSLGGQASISCRSSQSLVHSNGNTYLQWYLQKPGQSPKLLIFKVSNRFSGVPDRFSGSGSGTDFTLKISRVEAEDLGVYFCFQSIHVPYTFGGGTKLEIK | 9.12
152E9F7 mouse monoclonal antibody (antibody, V domains shown, mouse hybridoma antibody) VH: QVQLQQSGAELVRPGASVTLSCKASGYTFTDYEIHWVKQTPVHGLEWIGAIDPETGDTAYTQKFKGKAILTADKSSNTVYMELRSLTSEDSAVYYCTRFYSYAYWGQGTLVTVSA VL: DVVMTQTPLSLPVSLGDQASISCRSSQSLVHTNGHTYLQWYLQKSGQSPKLLIYKVSNRFSGVPDRFSGSGSGTDFTLKISRVEAEDLGVYFCSQSTHVPYTFGGGTKLEIK | 9.06
52H5D3B8 mouse monoclonal antibody (antibody, V domains shown, mouse hybridoma antibody) VH: QVQLQQSGAELVRPGASVKLSCKALGYTFTDYEMHWVKQTPVHGLEWIGAIHPGSGGTAYNQKFKGKATLTADKFSSTGYMELSSLTSEDSAVYYCTRFYSYAYWGQGTLVTVSA VL: DVVMTQTPLSLPVSLGDQASISCRSSQSLVHSNGNTYLQWYLQKPGQSPKLLIYKVSNRFSGVPDRFSGSGSGTDFILKISRVEAEDLGVYFCSQSIHVPYTFGGGTKLEIK | 8.86
18C1D9 mouse monoclonal antibody (antibody, V domains shown, mouse hybridoma antibody) VH: QVQLQQSGAELVRPGASVTLSCKASGYTFSDYEMHWVKQTPVHGLEWIGAIDPETGGTAYNQKFKGKATLTADKSSSTAYMELRSLTSEDSAVYYCTRYYSYAYWGQGTLVTVSA VL: DVVMTQSPLSLPVSLGDQASISCRSRQSLVHSNGNTYLQWYLQKPGQSPKLLIYKVSNRFSGVPDRFSGSGSGTDFTLKISRVEAEDLGVYFCFQSIHVPYTFGGGTKLEKK | 8.80
